Recorded measurements of EC50, one per entry
Target: UniProtKB Q9H3N8
Sequence (Q9H3N8 whole entry): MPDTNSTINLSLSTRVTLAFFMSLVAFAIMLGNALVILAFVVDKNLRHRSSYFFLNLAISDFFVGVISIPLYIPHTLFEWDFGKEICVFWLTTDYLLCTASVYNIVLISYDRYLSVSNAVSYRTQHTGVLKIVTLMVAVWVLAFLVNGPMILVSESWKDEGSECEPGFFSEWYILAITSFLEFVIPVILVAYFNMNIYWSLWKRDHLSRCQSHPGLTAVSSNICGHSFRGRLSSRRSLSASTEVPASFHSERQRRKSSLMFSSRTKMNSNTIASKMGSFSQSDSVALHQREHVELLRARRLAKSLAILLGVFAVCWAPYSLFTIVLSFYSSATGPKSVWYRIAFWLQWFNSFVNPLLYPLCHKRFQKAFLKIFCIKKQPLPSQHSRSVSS
Test: In vitro histamine receptor cell-based assay (aequorin bioluminescence), H4 antagonism
Settings: CHO-K1 cells expressing human H4, aequorin and Gα16; histamine at EC80; read-out: H4 Antagonist EC50
PARAMETER MEASURED: EC50

>  <COMPOUND STRING>
Cc1nc2c3sc(Cl)cc3nc(N3CCN(C)CC3)n2n1

>  <STUDY TARGET>
UniProtKB Q9H3N8

>  <MEASUREMENT>
≤ 10 µM

$$$$
>  <COMPOUND STRING>
Cc1nc2c3cc(Cl)sc3nc(N3CCN(C)CC3)n2n1

>  <STUDY TARGET>
UniProtKB Q9H3N8

>  <MEASUREMENT>
≤ 10 µM

$$$$
>  <COMPOUND STRING>
Cc1nc2c3sc(Cl)cc3nc(N3CCNCC3)n2n1

>  <STUDY TARGET>
UniProtKB Q9H3N8

>  <MEASUREMENT>
> 10 µM

$$$$
>  <COMPOUND STRING>
Cc1nc2c3cc(Cl)sc3nc(N3CCNCC3)n2n1

>  <STUDY TARGET>
UniProtKB Q9H3N8

>  <MEASUREMENT>
≤ 10 µM

$$$$
